- Test system: HIV-1 clinical isolated, characterised by mutations in the protease gene inducing geno-phenotypic resistance to SQV
- procedure_summary: p24 production susceptibility test (ACTG protocol), Table 8
- Type: cell-based
- details: Human immunodeficiency virus 1, PBMC, Gen. I84V L90M, read-out: E.C.50 HCQ
observed_property: EC50 (nM)
I only need the number, in nM, no unit after it.

Return EC50 for the following compound: CCN(CCO)CCCC(C)Nc1ccnc2cc(Cl)ccc12 (stereo not shown) [HCQ, hydroxychloroquine]
2800

----------
- Test system: HIV-1 clinical isolated, characterised by mutations in the RT gene inducing geno-phenotypic resistance to 3TC
- procedure_summary: p24 production susceptibility test (ACTG protocol), Table 3
- Type: cell-based
- details: Human immunodeficiency virus 1, PBMC, Gen. M184I, read-out: E.C.50 CQ
observed_property: pEC50
Bear in mind: pEC50 is minus log10 of a mol/L concentration; give just that figure.

Return pEC50 for the following molecule: CCN(CC)CCCC(C)Nc1ccnc2cc(Cl)ccc12 (stereo not shown) [CQ, chloroquine]
5.60
